# System: anti-IgM-induced lymphocyte proliferation
# PROCEDURE DETAILS: Lymphocyte proliferation assay (3H-Thymidine), anti-IgM-stimulated splenocytes
# Type: cell-based, mouse
# TEST SETTINGS: mouse splenocytes, 3H-Thymidine incorporation; read-out: IC50, lymphocyte proliferation, B-cells (anti-IgM)
ASSAY ENDPOINT: IC50 (nM)

[
  {
    "MOLECULE": "CN(C)CCCn1cc(C2=C(c3c[nH]c4ccccc34)C(=O)NC2=O)c2ccccc21 [Bisindolylmaleimide I, reference compound]",
    "ASSAY ENDPOINT": "IC50",
    "ENDPOINT UNIT": "nM",
    "RESULT VALUE": 200
  }
]
